System: pERK in PSN1 cells
Assay: Inhibition of KRas phosphorylation of ERK (Cisbio HTRF pERK assay)
Details: Homo sapiens, PSN1, 3 h, read-out: Inhibition (HTRF IC50) of KRas-mediated Phosphorylation of ERK, PSN1
IC50 values for the molecules below.

So what's the measured IC50 for this one? CCc1c(F)ccc2cc(O)cc(-c3ncc4c(N5CCCC(NS(N)(=O)=O)C5)nc(OC[C@@]56CCCN5C[C@H](F)C6)nc4c3F)c12 (stereo partly drawn)
≥ 10 µM

Record: CCc1c(F)ccc2cc(O)cc(-c3ncc4c(N5CCC[C@@](C)(O)C5)nc(OC[C@]56CCCN5[C@@H](COC(=O)N(C)C)CC6)nc4c3F)c12
5.13 µM

Record: CCc1c(F)ccc2cc(O)cc(-c3ncc4c(N5CC[C@H](F)[C@@H](O)C5)nc(OC[C@@]56CCCN5C[C@H](F)C6)nc4c3F)c12
6.96 µM

Record: CCc1c(F)ccc2cc(O)cc(-c3ncc4c(N5CCOC6(CCS(=N)(=O)CC6)C5)nc(OC[C@@]56CCCN5C[C@H](F)C6)nc4c3F)c12 (stereo partly drawn)
≥ 10 µM

Record: O=C1NCC12CCCN(c1nc(OC[C@@]34CCCN3C[C@H](F)C4)nc3c(F)c(-c4cc(O)cc5ccc(F)c(Br)c45)ncc13)C2 (stereo partly drawn)
≥ 10 µM

Continuing:
So what's the measured IC50 for this one? CCc1c(F)ccc2cc(O)cc(-c3ncc4c(NC[C@H]5COC[C@H]5O)nc(OC[C@@]56CCCN5C[C@H](F)C6)nc4c3F)c12 (single isomer, unassigned)
≥ 10 µM

====

IC50 values for the compounds below.
Biological target: KRas G12R (Homo sapiens, UniProt P01116, G12R);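 note: TR-FRET displacement assay of compound binding to KRas, read after one hour at room temperature, potency from a four-parameter fit of percent-of-control values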
Sequence (P01116 1-169 isoform P01116-2 G12R): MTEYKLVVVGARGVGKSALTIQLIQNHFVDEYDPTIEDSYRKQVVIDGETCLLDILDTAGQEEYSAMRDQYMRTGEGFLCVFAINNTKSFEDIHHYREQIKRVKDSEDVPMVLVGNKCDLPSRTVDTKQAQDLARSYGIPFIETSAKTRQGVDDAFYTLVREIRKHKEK
Experiment: biochemical
Just the number in nM, nothing appended.

So what's the measured IC50 for this one? O=C1CC(CNc2nc(OCC34CCCN3CCC4)nc3c(F)c(-c4cccc5cccc(F)c45)ncc23)C(=O)N1 (centres unmarked) [Example 236]
3350

Next compound, please.
So what's the measured IC50 for this one? CNc1cc2n(n1)CCCN(c1nc(OCC34CCCN3CCC4)nc3c(F)c(-c4cccc5cccc(F)c45)ncc13)C2 [Example 263]
3040

====

Test system: pERK in MKN1 cells
Assay: Inhibition of KRas phosphorylation of ERK (Cisbio HTRF pERK assay)
Conditions: Homo sapiens, MKN-1, 3 h, read-out: Inhibition (HTRF IC50) of KRas-mediated Phosphorylation of ERK, MKN1
property-label: IC50 (nM)
Just the number in nM, nothing appended.

So what's the measured IC50 for this one? NS(=O)(=O)CC1CCCN(c2nc(OC[C@@]34CCCN3C[C@H](F)C4)nc3c(F)c(-c4cc(O)cc5ccc(F)c(F)c45)ncc23)C1 (stereo partly drawn)
35

Continuing:
So what's the measured IC50 for this one? CCc1c(F)ccc2cc(O)cc(-c3ncc4c(N5C[C@@H]6C[C@H](C5)[C@H](O)C6)nc(OC[C@@]56CCCN5C[C@H](F)C6)nc4c3F)c12 (single isomer, unassigned)
1

====

Test system: pERK in MKN1 cells
Assay: Inhibition of KRas phosphorylation of ERK (Cisbio HTRF pERK assay)
Conditions: Homo sapiens, MKN-1, 3 h, read-out: Inhibition (HTRF IC50) of KRas-mediated Phosphorylation of ERK, MKN1
pIC50: −log10 of the molar value.
Quick rule for you: pIC50 at 8 or higher means Y, lower means N.

For this compound, is measured pIC50 8 or higher? CCc1c(F)ccc2cc(O)cc(-c3ncc4c(N5CCC[C@]6(CNC(=O)C6)C5)nc(OC[C@]56CCCN5C[C@@H](O)C6)nc4c3F)c12 [Example 206]
N

Record: CCc1c(F)ccc2cc(O)cc(-c3ncc4c(N5CCOC[C@@](C)(O)C5)nc(OC[C@@]56CCCN5C[C@H](F)C6)nc4c3F)c12 [Example 200]
Y

Record: CCc1c(F)ccc2cc(O)cc(-c3ncc4c(N5CCC[C@@](C)(O)C5)nc(OCC5(CN(C)C)CC5)nc4c3F)c12 [Example 316]
Y

Continuing:
For this compound, is measured pIC50 8 or higher? CCc1c(F)ccc2cc(O)cc(-c3ncc4c(N5CCCn6nc(C(=O)N7CCN(C)CC7)cc6C5)nc(OC[C@@]56CCCN5C[C@H](F)C6)nc4c3F)c12 [Example 477]
N

Record: Nc1cc2n(n1)CCCN(c1nc(OC[C@@]34CCCN3C[C@H](F)C4)nc3c(F)c(-c4cc(O)cc5ccc(F)c(Cl)c45)ncc13)C2 [Example 426]
N

Record: CCc1c(F)ccc2cc(O)cc(-c3ncc4c(N5CCOC[C@@](C)(O)C5)nc(OCC5(CN6CCCC6)CC5)nc4c3F)c12 [Example 321]
Y

Record: CCc1c(F)ccc2cc(O)cc(-c3ncc4c(N5C[C@H](O)CC[C@@H]5C)nc(OC[C@@]56CCCN5C[C@H](F)C6)nc4c3F)c12 [Example 186]
N

Record: CCc1c(F)ccc2cc(O)cc(-c3ncc4c(N5CCC[C@@](C)(O)C5)nc(OCC5(CN6CCCC6)CC5)nc4c3F)c12 [Example 202]
Y

====

Target: KRas G13D (Homo sapiens, UniProt P01116, G13D)
Construct: Biotinylated KRas (corresponding to amino acids 1-169, produced at Accelegan Inc.); biotin (biotinylated); purchased Accelegan Inc
Sequence (P01116 1-169 isoform P01116-2 G13D): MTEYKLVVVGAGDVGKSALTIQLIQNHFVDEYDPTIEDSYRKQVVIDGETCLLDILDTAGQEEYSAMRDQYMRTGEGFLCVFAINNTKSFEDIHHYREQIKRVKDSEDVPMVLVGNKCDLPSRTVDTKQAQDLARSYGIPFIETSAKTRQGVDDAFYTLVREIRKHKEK
Test: KRas binding assay (TR-FRET displacement);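 note: One-hour room temperature incubation before TR-FRET reading, IC50 from a four-parameter curve fit to percent-of-control data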
IC50 values for the molecules below.
Just the number in nM, nothing appended.

Reference set (6 entries):
So what's the measured IC50 for this one? Fc1c(-c2cccc3cccc(F)c23)ncc2c(NCCNc3cccnc3)nc(OCC34CCCN3CCC4)nc12
20200

Record: Fc1c(-c2cccc3cccc(F)c23)ncc2c(NCc3nnc4ncccn34)nc(OCC34CCCN3CCC4)nc12
17300

Record: Fc1c(-c2cccc3cccc(F)c23)ncc2c(N3C[C@@H]4CC[C@@H](C4)C3)nc(OCC34CCCN3CCC4)nc12
9370

Record: Fc1c(-c2cccc3cccc(F)c23)ncc2c(N3CC=CCC3)nc(OCC34CCCN3CCC4)nc12
3480

Record: N#CC1CCCN(c2nc(OCC34CCCN3CCC4)nc3c(F)c(-c4cccc5cccc(F)c45)ncc23)CC1 (stereo not shown)
5260

Record: Fc1c(-c2cccc3cccc(F)c23)ncc2c(NCCCc3cc[nH]n3)nc(OCC34CCCN3CCC4)nc12
5070

Next molecule, please.
So what's the measured IC50 for this one? Fc1c(-c2cccc3cccc(F)c23)ncc2c(N3CC(n4cncn4)C3)nc(OCC34CCCN3CCC4)nc12
14100

====

Target: KRas G12D (Homo sapiens, UniProt P01116, G12D);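 note: TR-FRET displacement binding assay on KRas, read after a one-hour incubation at room temperature, IC50 fitted from percent-of-control values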
Sequence (P01116 1-169 isoform P01116-2 G12D): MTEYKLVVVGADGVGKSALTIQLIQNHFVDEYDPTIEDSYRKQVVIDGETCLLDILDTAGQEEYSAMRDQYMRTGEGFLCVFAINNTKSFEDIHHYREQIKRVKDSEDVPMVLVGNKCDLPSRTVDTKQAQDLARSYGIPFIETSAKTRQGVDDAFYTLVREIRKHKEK
Experiment: biochemical
IC50 values for the molecules below.
Just the number in nM, nothing appended.

Reference set (8 entries):
Lab note: need IC50 for CNS(=O)(=O)C1CCCN(c2nc(OCC34CCCN3CCC4)nc3c(F)c(-c4cccc5cccc(F)c45)ncc23)C1 (stereo not shown) on KRas G12D (Homo sapiens, UniProt P01116, G12D), anyone have it?
9560

Record: Cc1cc2[nH]ncc2c(-c2ncc3c(N4CCCC(C)(O)C4)nc(OC[C@@]45CCCN4C[C@H](F)C5)nc3c2F)c1C (stereo partly shown)
309

Record: Fc1c(-c2cccc3cccc(F)c23)ncc2c(N3CC(n4ccnc4)C3)nc(OCC34CCCN3CCC4)nc12
63100

Record: CCc1c(F)ccc2cc(O)cc(-c3ncc4c(NCCC5CCNC5=O)nc(OC[C@@]56CCCN5C[C@H](F)C6)nc4c3F)c12 (stereo partly shown)
44

Record: CN(CCC(N)=O)c1nc(OCC23CCCN2CCC3)nc2c(F)c(-c3cccc4cccc(F)c34)ncc12
6070

Record: OC1CC2(CCCN(c3nc(OCC45CCCN4CCC5)nc4c(F)c(-c5cccc6cccc(F)c56)ncc34)C2)C1 (stereo not shown)
2660

Record: CC1(CNc2nc(OCC34CCCN3CCC4)nc3c(F)c(-c4cccc5cccc(F)c45)ncc23)CNC(=O)C1 (stereo not shown)
12100

Record: CCc1c(F)ccc2cc(O)cc(-c3ncc4c(N5CCCC6(C5)C[S+]([O-])C6)nc(OC[C@@]56CCCN5C[C@H](F)C6)nc4c3F)c12 (stereo partly shown)
23

Continuing:
Lab note: need IC50 for Oc1cc(-c2ncc3c(N4CCC[C@]5(C4)C[C@H](O)C5)nc(OC[C@@]45CCCN4C[C@H](F)C5)nc3c2F)c2c(F)c(F)ccc2c1 (single isomer, unassigned) on KRas G12D (Homo sapiens, UniProt P01116, G12D), anyone have it?
3

Record: Fc1c(-c2cccc3cccc(F)c23)ncc2c(N3C[C@@H]4CC[C@@H](C4)C3)nc(OCC34CCCN3CCC4)nc12
24000
